- assayed.system: AD brain tissue (Homo sapiens)
- Sequence (P05067 whole entry): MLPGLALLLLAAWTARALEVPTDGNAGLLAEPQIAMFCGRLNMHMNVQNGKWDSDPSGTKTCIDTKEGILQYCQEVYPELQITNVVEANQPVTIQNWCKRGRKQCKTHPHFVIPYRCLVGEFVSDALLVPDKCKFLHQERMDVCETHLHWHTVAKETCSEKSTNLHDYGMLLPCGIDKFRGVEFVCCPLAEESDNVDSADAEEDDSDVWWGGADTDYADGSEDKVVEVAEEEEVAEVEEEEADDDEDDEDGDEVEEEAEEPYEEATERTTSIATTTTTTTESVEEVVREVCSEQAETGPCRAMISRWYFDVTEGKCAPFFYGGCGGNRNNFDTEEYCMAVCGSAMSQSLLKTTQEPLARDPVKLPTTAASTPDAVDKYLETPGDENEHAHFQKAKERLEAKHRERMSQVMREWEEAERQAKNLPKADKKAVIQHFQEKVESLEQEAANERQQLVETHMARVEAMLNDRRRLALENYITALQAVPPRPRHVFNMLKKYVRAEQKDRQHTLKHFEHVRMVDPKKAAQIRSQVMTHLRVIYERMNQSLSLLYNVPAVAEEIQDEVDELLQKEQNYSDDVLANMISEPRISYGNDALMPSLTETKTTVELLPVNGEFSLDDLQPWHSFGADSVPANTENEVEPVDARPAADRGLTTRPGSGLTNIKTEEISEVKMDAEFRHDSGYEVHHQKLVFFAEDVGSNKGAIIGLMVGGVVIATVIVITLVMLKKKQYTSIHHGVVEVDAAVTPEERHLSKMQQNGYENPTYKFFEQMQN
- measurement.description: Competitive binding in AD brain tissue vs [3H]PiB
- cond: AD brain tissue, radioligand [3H]PiB
recorded.endpoint: log10 Ki (log10 of the value in nM)
# values: log10(Ki), units nM

Exercise: Provide one value: measured log10 Ki of COc1ccc(Nc2ccc3cc(O)ccc3n2)cn1
Solution: 1.56

Exercise: Give reported log10 Ki value for COc1ccc2nc(Nc3ccnc(OC)c3)ccc2c1.Cl
Solution: 2.03

Exercise: Kindly indicate its recorded log10 Ki. Item: COc1ccc(Nc2nc3ccccc3cc2N)cn1
Solution: 0.82

Exercise: Let me know recorded log10 Ki for COc1ccc(Nc2ccc3ccc(N)cc3n2)cn1 , thanks.
Solution: 1.56

Exercise: Retrieve log10 Ki measured for COc1ccc(Nc2ccc3cc(OCc4cccnc4)ccc3n2)cn1.Cl and print it.
Solution: 1.40

Exercise: Determine its reported log10 Ki: COc1ccc2nc(Nc3ccc4cn[nH]c4c3)ccc2c1
Solution: 0.76

Exercise: Quote log10 Ki reported for CCOc1ccc(Nc2ccc3cc(OCCF)ccc3n2)cn1.Cl please.
Solution: 2.55

Exercise: Please indicate log10 Ki recorded for CCc1ccc(Nc2ccc3cc(OCCN4CCCCC4)ccc3n2)cn1
Solution: 2.20

Exercise: Name the recorded log10 Ki of the compound listed here: COc1ccc2cc(Nc3ccc(OC)nc3)ncc2c1
Solution: 0.49

Exercise: Specify measured log10 Ki for COc1ccc2nc(Nc3ccc(-n4cccn4)nc3)ccc2c1 .
Solution: 1.66

Exercise: Input COc1ccc(Nc2ccc3cc(OC)ccc3n2)cc1 , output reported log10 Ki.
Solution: 0.30

Exercise: Give the reported log10 Ki for this compound. CCCOc1ccc(Nc2ccc3cc(OCCF)ccc3n2)cn1
Solution: 2.56

Exercise: In one line, give reported log10 Ki of the entry COc1ccc2nc(Nc3nc4ccc(N(C)C)cc4s3)ccc2c1 .
Solution: 1.70

Exercise: Output log10 Ki of COc1ccc2nc(Nc3ccc(N4CCOCC4)nc3)ccc2c1
Solution: 0.20

Exercise: Provide one value: measured log10 Ki of CC(C)Oc1ccc(Nc2ccc3cc(OCCF)ccc3n2)cn1
Solution: 2.15

Exercise: Provide only the value of recorded log10 Ki for COc1ccc2nc(/C=C/c3nc4ccc(OC)cc4s3)ccc2c1
Solution: -0.72

Exercise: Supply log10 Ki value. Item: COc1cccc(COc2ccc3nc(Nc4ccc(OC)nc4)ccc3c2)c1
Solution: 1.18

Exercise: Item COc1ccc(Nc2ccc3cc(OCc4ccncc4)ccc3n2)cn1 : provide log10 Ki
Solution: 1.86

Exercise: For the compound COc1ccc2nc(Nc3ccc(C=O)o3)ccc2c1 , give its measured log10 Ki value.
Solution: 1.72

Exercise: Return reported log10 Ki. Input compound: COc1ccc(Nc2ccc3cc(OC/C=C/I)ccc3n2)cn1
Solution: 1.12

Exercise: Respond only with log10 Ki recorded for COc1ccc2c(c1)CCC(Nc1cc(C)n[nH]1)=N2
Solution: 1.95
